For each entry below, report its pIC50 value.
measurement target: HIV-1 PR (Human immunodeficiency virus type 1 group M subtype B, UniProt P04585)
measurement protocol: HIV-protease inhibitory activity assay (FRET peptide substrate)
study conditions: Test Example 1
Notebook: values listed as pIC50 are -log10 of the concentration (mol/L).

Note to self: pIC50 recorded for COc1ccc(S(=O)(=O)N(CC(C)C)C[C@@H](O)[C@H](Cc2ccc(OCc3ccccc3-c3sc4c(c3C(=O)O)CCCC4=O)cc2)NC(=O)O[C@H]2CO[C@@]3(C)OCC[C@@H]23)cc1 was 8.98

Note to self: pIC50 recorded for COc1ccc(S(=O)(=O)N(CC(C)C)CC(O)C(Cc2ccc(N(C)Cc3occc3-c3sc4c(c3C(=O)O)CC(C)(C)CC4)cc2)NC(=O)OC2COC3(C)OCCC23)cc1 (stereo not shown) was 8.74

Note to self: pIC50 recorded for COc1ccc(S(=O)(=O)N(CC(C)C)CC(O)C(Cc2ccc(N(C)CC3CCCCC3c3sc4c(c3C(=O)O)CC(C)(C)CC4)cc2)NC(=O)OC2COC3(C)OCCC23)cc1 (stereo not shown) [Compound I-375] was 8.41

Note to self: pIC50 recorded for COc1ccc(S(=O)(=O)N(CC(C)C)CC(O)C(Cc2ccc(NCc3cc4ccsc4nc3-c3sc4c(c3C(=O)O)CC(C)(C)CC4)cc2)NC(=O)OC2COC3(C)OCCC23)cc1 (stereo not shown) was 8.65

Note to self: pIC50 recorded for COc1ccc(S(=O)(=O)N(CC(C)C)CC(O)C(Cc2ccc(OCc3nccnc3-c3ccc(-c4sc5c(c4C(=O)O)CC(C)(C)CC5)cc3)cc2)NC(=O)OC2COC3(C)OCCC23)cc1 (stereo not shown) was 8.67

Note to self: pIC50 recorded for COc1ccc(S(=O)(=O)N(CC(C)C)CC(O)C(Cc2ccc(NCc3ccc(-c4c(C(=O)O)sc5c4CC(C)(C)CC5)cc3)cc2)NC(=O)OC2COC3(C)OCCC23)cc1 (stereo not shown) was 8.48

Note to self: pIC50 recorded for COc1ccc(S(=O)(=O)N(CC(C)C)CC(O)C(Cc2ccc(NCc3ccc(Oc4ccc(-c5sc6c(c5C(=O)O)CC(C)(C)CC6)cc4)cc3)cc2)NC(=O)OC2COC3(C)OCCC23)cc1 (stereo not shown) was 7.85

Note to self: pIC50 recorded for COc1ccc(S(=O)(=O)N(CC(C)C)CC(O)C(Cc2ccc(OC3CCCN(c4ccc(C#N)cc4-c4sc5c(c4C(=O)O)CC(C)(C)CC5)C3)cc2)NC(=O)OC2COC3(C)OCCC23)cc1 (stereo not shown) [Compound I-332] was 8.13

Note to self: pIC50 recorded for COc1ccc(S(=O)(=O)N(CC(C)C)CC(O)C(Cc2ccc(NCc3ccc(Oc4ccc(-c5sc6c(c5C(=O)O)CC(C)(C)CC6)c(C)c4)cc3)cc2)NC(=O)OC2COC3(C)OCCC23)cc1 (stereo not shown) was 7.65

Note to self: pIC50 recorded for COc1ccc(S(=O)(=O)N(CC(C)C)CC(O)C(Cc2ccc(CN(C)Cc3ccccc3-c3sc4c(c3C(=O)O)CC(C)(C)CC4)cc2)NC(=O)OC2COC3(C)OCCC23)cc1 (stereo not shown) was 8.66

Note to self: pIC50 recorded for COc1ccc(S(=O)(=O)N(CC(C)C)CC(O)C(Cc2ccc(NCc3cccnc3-c3sc4c(c3C(=O)O)CC(C)(C)CC4)cc2)NC(=O)OC2COC3(C)OCCC23)cc1 (stereo not shown) was 8.66

Note to self: pIC50 recorded for COc1ccc(S(=O)(=O)N(CC(C)C)CC(O)C(Cc2ccc(N(Cc3ccccc3-c3sc4c(c3C(=O)O)CC(C)(C)CC4)CC(C)C)cc2)NC(=O)OC2COC3(C)OCCC23)cc1 (stereo not shown) was 8.07

Note to self: pIC50 recorded for COc1ccc(S(=O)(=O)N(CC(C)C)CC(O)C(Cc2ccc(NCC3CCCCN3C(=O)c3sc4c(c3C(=O)O)CC(C)(C)CC4)cc2)NC(=O)OC2COC3(C)OCCC23)cc1 (stereo not shown) [Compound I-604] was 8.66

Note to self: pIC50 recorded for COc1ccc(S(=O)(=O)N(CC(C)C)CC(O)C(Cc2ccc(N(C)CC3CCCCC3c3sc4c(c3C(=O)O)CC(C)(C)CC4)cc2)NC(=O)OC2COC3(C)OCCC23)cc1 (stereo not shown) [Compound I-374] was 8.36

Note to self: pIC50 recorded for COc1ccc(S(=O)(=O)N(CC(C)C)CC(O)C(Cc2ccc(OC3CCC(c4ccc(C(F)(F)F)cc4-c4sc5c(c4C(=O)O)CC(C)(C)CC5)C3)cc2)NC(=O)OC2COC3(C)OCCC23)cc1 (stereo not shown) was 7.80

Note to self: pIC50 recorded for CC(C)CN(CC(O)C(Cc1ccc(OCc2ccccc2-c2ccc3c(c2)C(=O)C(c2ccc(F)cc2)C3=O)cc1)NC(=O)OC1COC2(C)OCCC12)S(=O)(=O)c1ccc2c(c1)OCO2 (stereo not shown) was 8.68

Note to self: pIC50 recorded for COc1ccc(S(=O)(=O)N(CC(C)C)CC(O)C(Cc2ccc(NCC3=C(c4sc5c(c4C(=O)O)CC(C)(C)CC5)COC3)cc2)NC(=O)OC2COC3(C)OCCC23)cc1 (stereo not shown) was 8.70

Note to self: pIC50 recorded for COc1ccc(S(=O)(=O)N(CC(C)C)CC(O)C(Cc2ccc(OCc3ccccc3-c3ccc(Oc4ccc(-c5c(O)c6ccc(Cl)cc6[nH]c5=O)cc4)cc3)cc2)NC(=O)OC2COC3OCCC23)cc1 (stereo not shown) was 8.47

Note to self: pIC50 recorded for COc1ccc(S(=O)(=O)N(CC(C)C)CC(O)C(Cc2ccc(N(CCN3CCOCC3)Cc3ccccc3-c3sc4c(c3C(=O)O)CC(C)(C)CC4)cc2)NC(=O)OC2COC3(C)OCCC23)cc1 (stereo not shown) was 8.66
